molecular target: Solute carrier family 15 member 2 (Rattus norvegicus); experiment: TP_TRANSPORTER: inhibition of Gly-Sar uptake in PEPT2-expressing HeLa cells; format: functional, cell-based
measurement.name: pKi
Expect pKi as a plain number equal to -log10 of the molar concentration.

pKi reported for this molecule CC(C)[C@H](N)C(=O)OCCOCn1cnc2c(=O)[nH]c(N)nc21 : 3.41

====

Biological target: Solute carrier family 15 member 2 (Rattus norvegicus)
Sequence (Q63424 whole entry): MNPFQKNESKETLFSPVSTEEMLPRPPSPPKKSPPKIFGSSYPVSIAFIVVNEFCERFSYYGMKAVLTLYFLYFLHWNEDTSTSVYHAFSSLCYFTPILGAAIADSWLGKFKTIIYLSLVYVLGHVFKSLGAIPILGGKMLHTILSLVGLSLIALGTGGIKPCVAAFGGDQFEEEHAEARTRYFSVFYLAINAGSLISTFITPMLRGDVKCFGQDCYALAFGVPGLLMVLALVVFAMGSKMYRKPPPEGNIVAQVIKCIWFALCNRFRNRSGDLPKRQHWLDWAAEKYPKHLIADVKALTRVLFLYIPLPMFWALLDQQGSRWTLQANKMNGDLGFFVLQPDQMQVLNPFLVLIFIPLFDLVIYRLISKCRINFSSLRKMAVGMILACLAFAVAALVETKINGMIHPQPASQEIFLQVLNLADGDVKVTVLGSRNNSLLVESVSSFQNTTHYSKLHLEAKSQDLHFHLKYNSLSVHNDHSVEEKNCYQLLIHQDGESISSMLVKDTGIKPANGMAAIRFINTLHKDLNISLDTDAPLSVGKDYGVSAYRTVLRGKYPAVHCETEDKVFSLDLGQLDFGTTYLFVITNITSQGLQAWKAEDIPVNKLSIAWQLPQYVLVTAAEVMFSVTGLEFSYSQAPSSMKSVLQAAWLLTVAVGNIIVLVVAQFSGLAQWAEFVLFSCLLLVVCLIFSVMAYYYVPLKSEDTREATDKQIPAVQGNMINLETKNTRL
Assay: TP_TRANSPORTER: inhibition of Gly-Sar uptake in SKPT cells
Format: functional, cell-based
measurement.name: pKi
A value of pKi is the negative decimal logarithm of a concentration given in moles per litre.

Reading of pKi for CC(C)[C@H](N)C(=O)OCCOCn1cnc2c(=O)[nH]c(N)nc21 with Solute carrier family 15 member 2 (Rattus norvegicus): 3.77

====

molecular target: Solute carrier family 15 member 1 (Homo sapiens, UniProt P46059); experiment: TP_TRANSPORTER: inhibition of Gly-Sar uptake in PEPT1-expressing HeLa cells; assay type: functional, cell-based
Sequence (P46059 whole entry): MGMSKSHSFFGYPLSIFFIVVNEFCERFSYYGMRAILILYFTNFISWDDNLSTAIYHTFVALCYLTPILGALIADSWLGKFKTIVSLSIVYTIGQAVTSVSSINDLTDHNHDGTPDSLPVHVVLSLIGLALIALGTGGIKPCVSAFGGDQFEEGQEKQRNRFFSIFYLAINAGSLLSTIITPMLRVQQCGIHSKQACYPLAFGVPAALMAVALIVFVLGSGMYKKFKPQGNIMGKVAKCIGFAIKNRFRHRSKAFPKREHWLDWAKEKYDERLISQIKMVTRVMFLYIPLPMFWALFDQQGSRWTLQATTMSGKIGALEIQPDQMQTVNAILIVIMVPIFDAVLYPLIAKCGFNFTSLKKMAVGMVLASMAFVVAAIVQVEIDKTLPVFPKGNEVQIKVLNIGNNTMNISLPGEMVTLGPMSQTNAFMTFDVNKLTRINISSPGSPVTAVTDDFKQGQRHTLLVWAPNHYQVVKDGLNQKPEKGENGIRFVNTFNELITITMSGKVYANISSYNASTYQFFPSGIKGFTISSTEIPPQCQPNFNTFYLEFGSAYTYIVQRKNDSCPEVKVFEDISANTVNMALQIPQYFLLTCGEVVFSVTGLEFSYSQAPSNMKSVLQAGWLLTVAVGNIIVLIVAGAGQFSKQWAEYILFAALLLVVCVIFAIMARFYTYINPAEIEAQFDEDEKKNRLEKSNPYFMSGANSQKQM
measurement.name: pKi
pKi is a log-scale quantity: -log10 of the concentration expressed in molar.

GET /value?item= CC(C)[C@H](N)C(=O)OCCOCn1cnc2c(=O)[nH]c(N)nc21 [VALACYCLOVIR] &field=pKi returns 3.13
